Please go through the items and note down their IC50.
systemTested: Mammalian (Human) 20s Proteasome (Homo sapiens)
Construct: purchased Boston Biochem (Cambridge, Mass.)
experimentNotes: Chymotrypsin-like (ChT-L) peptidase activity of 20S proteasome, N-succinyl-LLVY-AMC substrate
Assay type: biochemical
protocolConditions: chymotrypsin-like activity, 15-minute pre-incubation, 1 hour at 37° C., pH 7.5, 0.03% SDS; read-out: I50
Ends that are not written are not given here.
Value and unit, in that order.

The reported value for RRRPRPPYLPR [PR11, reference compound] in terms of IC50 is 805 nM

The reported value for RAAPRPPYLPR [RAA] in terms of IC50 is 20100 nM

The reported value for RRRPRPPYGPR [Peptide G9] in terms of IC50 is 137 nM

The reported value for RRRPAPPYLPR [Peptide A5] in terms of IC50 is 2650 nM

The reported value for AARPRPPYLPR [AAR] in terms of IC50 is 14500 nM

The reported value for ARRPRPPELPR [Peptide A1E8] in terms of IC50 is 49400 nM

The reported value for KKKPRPPYLPR [KKK] in terms of IC50 is 2710 nM
